Test system: MS2 coat protein
assay-overview: apparent KD of MS2 coat protein; higher = weaker reporter binding
experimental-parameters: Eterna round: R107; input ligand: theophylline 2 mM
Each entry gets NOT MET if its apparent KD of MS2 coat protein stays under 30 nM, and MET if its apparent KD of MS2 coat protein is 30 nM or above.

Solved entries:
>  <macromolecule-sequence>
AGUGAUGACCGAAGGAGCGCGGGAAACAUGAGGAUCACCCAUGUACUCCUCAGUGUUAUAACGCAGGUAGGUCGCGGUUAUGGCU [X-ArgiB-ms2@26]

>  <experimental-target>
MS2 coat protein

>  <label>
MET

$$$$
>  <macromolecule-sequence>
ACAUGAGGAUCACCCAUGUAUUACCGGGAAGGAGCGCGUAAGGACGCAGGUAGGUCGCUCGGCGUCGUGCUGUAAAGCACGACGA [#1 Same State - Arginine A Attempt #24 (HarryS)]

>  <experimental-target>
MS2 coat protein

>  <label>
NOT MET

$$$$
>  <macromolecule-sequence>
UUCGUUUGCGGAAGGAGCGACGGACAUCGGUGAACGACGGACAUGAGGAUCACCCAUGUACGUCAGGUAGGUCGCCGCUAAGAGU [Enbiceri]

>  <experimental-target>
MS2 coat protein

>  <label>
NOT MET

$$$$
>  <macromolecule-sequence>
AAUCAUGGAAACAUGACAUGAGGGUUGCUCCGAGGACCGGUACGGCCGCCACUCGCGAGGAGGCGGACAUGAGGAUCACCCAUGU [#05 Tryptophan A Same State]

>  <experimental-target>
MS2 coat protein

>  <label>
MET

$$$$
>  <macromolecule-sequence>
ACGGAGAUUGCUAAAUGUUGGCGAGCGGAUACCAGCCUAUAAUCGGGCCCUUGGCAGCCGACAUGAGGAUCACCCAUGUAAACAA [Gelelaor]

>  <experimental-target>
MS2 coat protein

>  <label>
MET

$$$$
>  <macromolecule-sequence>
UAUAUAUAUCACUAACUGUUCUUGAGGUCUCGAGGACCGGUACGGCCGCCACUCGUGCCGCCUCACAUGAGGAUCACCCAUGUCC [XTryp A #2]

>  <experimental-target>
MS2 coat protein

>  <label>
MET

$$$$
>  <macromolecule-sequence>
GAGUAGAGGACGGCCGCCACUGAACAUGAGGAUCACCCAUGUCGUGAUCCGUUACCUAGGGUAGAUAGGACCGGGUCAUGUACUC [Exclusion Tryptophan B GF 18]

>  <experimental-target>
MS2 coat protein

>  <label>
MET

$$$$
>  <macromolecule-sequence>
AAAUACAUGAGGAUCACCCAUGUCAAUAAUCGAGGACCGGUACGGCCGCCACUCGAUCGGCCAAGAAAAUGAAAGAUGAUCUCUA [theeternabot_sameState_MS2_Trp_A_8]

>  <experimental-target>
MS2 coat protein

>  <label>
NOT MET

$$$$

Challenge: Hi team, for UUCUGGUCCCGUGAUACCAGAGACAUGAGGAUCACCCAUGUACAUGAGGAUCACCCAUGUUUCCCUUGGCAGCACUGCAGUGAGC [Exclusion Theophylline B GF 15] , is the recorded apparent KD of MS2 coat protein at or above 30 nM?
Response given: MET

Challenge: Is apparent KD of MS2 coat protein at least 30 nM? Consider UUGUGUUUAUUGGUUUAGCUAUUAUGGUUGCGAGGACCGGUACGGCCGCCACUCGAUGGAACAUGAGGAUCACCCAUGUGAGGAA [JR_ExcTryptoA_Sub013]
Response given: MET

Challenge: Check the entry GGACUAACCAGAAGGAGCGACACGCAGAAACUGCUAUUUCCUCCGCACGAGGAUCACCCGUGUCAGGUAGGUCGCUGGUUAGUCG [ArgBX 28] : does apparent KD of MS2 coat protein equal or exceed 30 nM?
Response given: NOT MET

---

Tested on: MS2 coat protein
assay-overview: apparent KD of MS2 coat protein; designed switch direction (-1 OFF switch, 1 ON switch): -1; higher = weaker reporter binding
experimental-parameters: input ligand: FMN 200 uM
reported-metric: apparent KD of MS2 coat protein (nM)
Kindly provide the numeric value in nM only, without the unit symbol.

Challenge: Please give the measured apparent KD of MS2 coat protein for this sequence: GGAGAGAUAUAGGAUAUGGGAGGGAGGACCGGACCAGAAGGAUAGACAUGAGGAUCACCCAUGUAGAGAUCCUC [AK-MS2ROC-r4-exclusion6-6.1] (Eterna round: R97, puzzle: Exclusion 6)
Response given: 302

Challenge: Param item = CCCAGUUAUUGAGGAUAUUGUACAUGAGGAUCACCCAUGUAAUAAAUGAGGAUUUCGGGUGUCUACAAGAAGGCAAGGAUAGGC [Ostracism 20 - Jieux - Exclusion NG 2] (Eterna round: R96, puzzle: Exclusion NG 2) ; retrieve measured apparent KD of MS2 coat protein.
Response given: 54.6

---

System: MS2 coat protein
assay-overview: apparent KD of MS2 coat protein; designed switch direction (-1 OFF switch, 1 ON switch): -1; higher = weaker reporter binding
experimental-parameters: input ligand: FMN 200 uM
reported-metric: apparent KD of MS2 coat protein (nM)
Number in nM, nothing else.

// known answers, use as guide
>  <macromolecule-sequence>
CAUUAUUAUCGAGGAUAUCCUAUUGUAAUUCUGGGAGAAGGCGGACUCAACAUGAGGAUCACCCAUGUAAGACGGGUACUAGAG [Ex NG1 #23] (Eterna round: R96, puzzle: Exclusion NG 1)

>  <experimental-target>
MS2 coat protein

>  <apparent KD of MS2 coat protein (nM)>
85.1

$$$$
>  <macromolecule-sequence>
AACAUGUGAGGAUAUUAUCACAAAGGCGUAGAAAUACGCGAUAAGAAGGCACAUGAGGAUCACCCAUGUUCCGA [EX4 A.24] (Eterna round: R97, puzzle: Exclusion 4)

>  <experimental-target>
MS2 coat protein

>  <apparent KD of MS2 coat protein (nM)>
66.8

$$$$
>  <macromolecule-sequence>
CGAGCUGCUGUGAGGAUAUACCUAUGGAUACGUGGGUAGAAGGCACAUGAGGAUCACCCAUGUCCUGCAGCUCG [salish99_bmx4_r4_102] (Eterna round: R97, puzzle: Brourd's mod of Exclusion 4)

>  <experimental-target>
MS2 coat protein

>  <apparent KD of MS2 coat protein (nM)>
313

$$$$
>  <macromolecule-sequence>
CCAUGGGUGCGAGGAUAUAGCCCAUGGGAAGAGCUAGAAGGCGCAGACAUGAGGAUCACCCAUGUGUUCAUGAGGAGGUGGACA (Eterna round: R96, puzzle: Exclusion NG 1)

>  <experimental-target>
MS2 coat protein

>  <apparent KD of MS2 coat protein (nM)>
124

$$$$

Challenge: Which apparent KD of MS2 coat protein value is on record for ACAAGCUUUACGAUCCUCAACAUGAGGAUCACCCAUGUGCUCGUAUUGUUUAGUACUAUCACGAAAGUGAUAGUACA [Sensor, turn off variant 1 v.6] (Eterna round: R97, puzzle: Sensor, turn-off variant 1) ?
Response given: 1430

Challenge: Could you tell me which apparent KD of MS2 coat protein is on file for UCUGGGUCUGUGAGGAUAUCGGGCCCGAAAGGGCCCGAGAAGGCACAUGAGGAUCACCCAUGUAAGGGCUCGGG [-38.4, -36.3 kcal, A 23%, 0-7bis] (Eterna round: R97, puzzle: Brourd's mod of Exclusion 4) ?
Response given: 20.3

Challenge: Requested read-out: apparent KD of MS2 coat protein. Entry: AGAUUGUUAGGAUAUUCGGACCGCUACGAAGCGUGGUCCAGGGAGAAGGAACAUGAGGAUCACCCAUGUGACCA [Eternabot (L2) Solution 33] (Eterna round: R97, puzzle: Exclusion 4)
Response given: 69.7

Challenge: Quick one: apparent KD of MS2 coat protein of UUGUAUAUAGGAUAUGUAAGAAGAAACAUGAGGAUCACCCAUGUAGCCUCAAAUUUUAUGACAGAAGGAUAUGUUA [Default title] (Eterna round: R97, puzzle: Exclusion 5) ?
Response given: 36.2

Challenge: What value of apparent KD of MS2 coat protein has been reported for the following sequence? GCACGGAGUGUAGGAUAUCUGUGCGAUUAGCUCAGAGAAGGACACAUGAGGAUCACCCAUGUGUUCCACGGAAACGUUCCGUGC [Eli exng1 - 049] (Eterna round: R96, puzzle: Exclusion NG 1)
Response given: 8.96

Challenge: Return reported apparent KD of MS2 coat protein; argument: CUGCUGGAGCUUUGCUUUAGUCGUACAUGAGGAUCACCCAUGUAGGAUAUGGUAGGCUUUGCUUACUAGAAGGAUAGAGUGAUC [salish99_ExNG3_r04_605] (Eterna round: R96, puzzle: Exclusion NG 3)
Response given: 289

Challenge: If you can, please state the reported apparent KD of MS2 coat protein value of UCCGGACAUGAGGAUCACCCAUGUGAGGAUAUUGUCGACACGACUGAAAGGAUCACGGCGAGAAGGCGCUUGGA [Eternabot (L2) Solution 48] (Eterna round: R97, puzzle: Exclusion 1) .
Response given: 25.7

Challenge: Query (sequence): AGCUGUGGCCGAGGAUAUCACAUGAGGAUCACCCAUGUAUAUGAUUAGGCCUGGUAACAGGCUCGUGAGAAGGCGGUCUCAGCA [Eli eng2 - 012] (Eterna round: R96, puzzle: Exclusion NG 2) ; field requested: apparent KD of MS2 coat protein
Response given: 28.4

Challenge: Given the sequence CCUAGUUGGUAAGGAUAUCCUACAUUAUUCUGACCCGUGCAAGCUACAUGAGGAUCACCCAUGUGGGAGAAGGUGCGUUAACGU [Design 8] (Eterna round: R96, puzzle: Exclusion NG 2) , what is its reported apparent KD of MS2 coat protein?
Response given: 55.7

// provenance: the supplement of paper PMC9170038
